Recorded IC50, one value per entry.
molecular target: cAMP-dependent protein kinase (PKA) (Homo sapiens, UniProt P22694+P17612+P22612); assay: Inhibition of PKA; format: protein assay
property name: IC50 (µM)

chemical_structure=N#Cc1cnc2c(Cl)cc(NCc3cccc[n+]3[O-])cc2c1Nc1ccc(F)c(Cl)c1 property_name=IC50 result_units=µM qual=> measured=40
chemical_structure=CN(C)CCCn1cc(CNc2cc(Br)c3ncc(C#N)c(Nc4ccc(F)c(Cl)c4)c3c2)nn1 property_name=IC50 result_units=µM qual=> measured=40
chemical_structure=N#Cc1cnc2c(F)cc(NCc3c[nH]cn3)cc2c1Nc1ccc(F)c(Cl)c1 property_name=IC50 result_units=µM qual== measured=10.3
chemical_structure=N#Cc1cnc2c(Cl)cc(NCc3cnc[nH]3)cc2c1Nc1ccc(F)c(Cl)c1 property_name=IC50 result_units=µM qual== measured=40.1
chemical_structure=Cn1cnc(CNc2cc(Br)c3ncc(C#N)c(Nc4ccc(F)c(Cl)c4)c3c2)c1 property_name=IC50 result_units=µM qual=> measured=100
chemical_structure=N#Cc1cnc2c(Br)cc(NCc3cn[nH]n3)cc2c1Nc1ccc(F)c(Cl)c1 property_name=IC50 result_units=µM qual=> measured=100
chemical_structure=CCCc1[nH]cnc1CNc1cc(Cl)c2ncc(C#N)c(Nc3ccc(F)c(Cl)c3)c2c1 property_name=IC50 result_units=µM qual== measured=76.1

###

target: Glycogen synthase kinase-3 beta (Homo sapiens)
Sequence (P49841 whole entry): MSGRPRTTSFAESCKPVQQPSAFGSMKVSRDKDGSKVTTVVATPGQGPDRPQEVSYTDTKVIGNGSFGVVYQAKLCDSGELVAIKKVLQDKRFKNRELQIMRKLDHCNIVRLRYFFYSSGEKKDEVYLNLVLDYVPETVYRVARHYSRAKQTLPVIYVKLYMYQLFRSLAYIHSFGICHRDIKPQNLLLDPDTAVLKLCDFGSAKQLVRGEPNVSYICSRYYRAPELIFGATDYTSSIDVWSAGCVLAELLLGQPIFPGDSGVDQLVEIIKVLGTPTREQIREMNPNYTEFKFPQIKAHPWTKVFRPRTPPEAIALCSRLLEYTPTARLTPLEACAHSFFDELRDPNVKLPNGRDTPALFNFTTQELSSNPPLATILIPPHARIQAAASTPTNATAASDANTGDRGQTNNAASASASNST
property name: IC50

chemical_structure=Cn1cnc(CNc2cc(Br)c3ncc(C#N)c(Nc4ccc(F)c(Cl)c4)c3c2)c1 measured="> 10 µM"

###

test system: Rattus norvegicus; experiment: AUC (0 to infinity) in Sprague-Dawley rat at 25 mg/kg, po; assay type: ADME, organism-based, Plasma; design: dose 25 mg/kg, route oral; conditions: in vivo
AUC/dose reference
property name: AUC/dose (ng·kg·h/mg/mL)

chemical_structure=N#Cc1cnc2c(Cl)cc(NCc3cccc[n+]3[O-])cc2c1Nc1ccc(F)c(Cl)c1 property_name=AUC/dose qual=< measured=10
chemical_structure=CN(C)CCCn1cc(CNc2cc(Br)c3ncc(C#N)c(Nc4ccc(F)c(Cl)c4)c3c2)nn1 property_name=AUC/dose qual=< measured=10
chemical_structure=N#Cc1cnc2c(Cl)cc(NCc3cnc[nH]3)cc2c1Nc1ccc(F)c(Cl)c1 property_name=AUC/dose qual== measured=24
chemical_structure=Cn1cnc(CNc2cc(Br)c3ncc(C#N)c(Nc4ccc(F)c(Cl)c4)c3c2)c1 property_name=AUC/dose qual== measured=142
chemical_structure=N#Cc1cnc2c(Br)cc(NCc3cn[nH]n3)cc2c1Nc1ccc(F)c(Cl)c1 property_name=AUC/dose qual=< measured=10

###

pIC50: −log10 of the molar value.
Quick record: pIC50, Ribosomal protein S6 kinase beta-1 (Homo sapiens, UniProt P23443).
property name: pIC50

chemical_structure=N#Cc1cnc2c(Cl)cc(NCc3cccc[n+]3[O-])cc2c1Nc1ccc(F)c(Cl)c1 measured="< 4.40"
chemical_structure=N#Cc1cnc2c(F)cc(NCc3c[nH]cn3)cc2c1Nc1ccc(F)c(Cl)c1 measured="< 4.40"
chemical_structure=N#Cc1cnc2c(Br)cc(NCc3cn[nH]n3)cc2c1Nc1ccc(F)c(Cl)c1 measured="< 4.00"
chemical_structure=N#Cc1cnc2c(Cl)cc(NCc3cnc[nH]3)cc2c1Nc1ccc(F)c(Cl)c1 measured="< 4.00"
chemical_structure=CCCc1[nH]cnc1CNc1cc(Cl)c2ncc(C#N)c(Nc3ccc(F)c(Cl)c3)c2c1 measured=4.73
